- System: HIV-1
- assay_details: anti-HIV-1 activity, standard plaque assay of a CEM-SS cell monolayer
- Format: cell-based
- assay_context: quotient of cytotoxicity IC50 and anti-HIV 1 IC50

molecule | target | value_qualifier | Diff. selectivity
CCCCCCCCCCCCS(=O)(=O)CC(CO)OCCCCCCCCCC (centres unmarked) [3-dodecylsulfonyl-2-decyloxy-1-propanol] | HIV-1 | = | 60.52
CCCCCCCCCCCC[S+]([O-])CC(CO)OCCCCCCCCCC (centres unmarked) [3-dodecylsulfinyl-2-decyloxy-1-propanol] | HIV-1 | = | 204.22
CCCCCCCCCCCCSCC(CO)OCCCCCCCC (centres unmarked) [3-dodecylmercapto-2-octyloxy-1-propanol] | HIV-1 | > | 12.92
CCCCCCCCCCOC(CO)CSCC(C)CCCCCCCCC (centres unmarked) | HIV-1 | > | 1.95
CCCCCCCCCCCOC(CO)CSCCCCCCCCCCC (centres unmarked) | HIV-1 | > | 33.90

###

In this section we review reported CC50 values for a set of compounds.
- assay_details: cytotoxicity in CEM-SS cells by uptake of TdR-^3H into total DNA
- Assay type: cell-based
- assay_context: human, TdR-^3H uptake into total DNA, read-out: IC50 cytotoxicity
- Protocol: The cell cytotoxicity and the anti-HIV-1-activity in CEM-SS cells of selected lipid alcohols are stated in table 1. The cytotoxicity was determined by uptake of TdR-^3 H into the total DNA at various concentrations of the stated compounds. The anti-HIV 1 activity was determined using a standard plaque assay of a CEM-SS cell monolayer. The differential selectivity results from the quotient of the IC50 and anti-HIV 1 activity concentrations. ND means not determined.
measured_attribute: CC50

compound | test_result
CCCCCCCCCCCCOC(CO)CSCCCCCCCCCCCC (stereo not shown) | > 100 µM
CCCCCCCCCCCCSCC(CO)OCCCCCCCC (stereo not shown) | > 90.6 µM
CCCCCCCCCCCC[S+]([O-])CC(CO)OCCCCCCCCCC (stereo not shown) | 36.8 µM
CCCCCCCCCCCCCCSCC(CO)OCCCCCCCCCC (stereo not shown) | > 100 µM
CCCCCCCCCCOC(CO)CSCC(C)CCCCCCCCC (stereo not shown) | > 100 µM
CCCCCCCCCCCOC(CO)CSCCCCCCCCCCC (stereo not shown) | > 100 µM
CCCCCCCCCCCCS(=O)(=O)CC(CO)OCCCCCCCCCC (stereo not shown) | 32.7 µM
